- Test system: SK-OV-3
- test protocol: Antiproliferative activity against human SK-OV-3 cells by MTT assay
- Assay type: functional, cell-based
pIC50: −log10 of the molar value.
Reported pIC50 by item:

{"compound": "CN(C)CCN1C(=O)c2cccc3c(N4CCN(C(=O)OC(C)(C)C)CC4)c([N+](=O)[O-])cc(c23)C1=O", "prefix operator": "=", "pIC50": 6.19}
{"compound": "Cc1ccc(S(=O)(=O)N2CCN(c3c([N+](=O)[O-])cc4c5c(cccc35)C(=O)N(CCc3ccc5c(c3)OCO5)C4=O)CC2)cc1", "prefix operator": "=", "pIC50": 4.54}
{"compound": "Cc1ccc(S(=O)(=O)N2CCN(c3c([N+](=O)[O-])cc4c5c(cccc35)C(=O)N(CCN(C)C)C4=O)CC2)cc1", "prefix operator": "=", "pIC50": 6.49}
{"compound": "CC(C)(C)OC(=O)N1CCN(c2c([N+](=O)[O-])cc3c4c(cccc24)C(=O)N(CCc2ccc4c(c2)OCO4)C3=O)CC1", "prefix operator": "=", "pIC50": 5.13}
{"compound": "Cc1ccc(S(=O)(=O)N2CCN(c3c([N+](=O)[O-])cc4c5c(cccc35)C(=O)N(CCc3ccc(O)c(O)c3)C4=O)CC2)cc1", "prefix operator": "=", "pIC50": 4.69}
{"compound": "O=C(c1ccccc1)N1CCN(c2c([N+](=O)[O-])cc3c4c(cccc24)C(=O)N(Cc2ccc(Cl)cc2)C3=O)CC1", "prefix operator": "=", "pIC50": 4.80}
{"compound": "O=C1c2cccc3c(N4CCN(C(=S)SCc5ccccc5)CC4)c([N+](=O)[O-])cc(c23)C(=O)N1CCc1ccc2c(c1)OCO2", "prefix operator": "=", "pIC50": 4.35}
{"compound": "Cc1ccc(S(=O)(=O)N2CCN(c3c([N+](=O)[O-])cc4c5c(cccc35)C(=O)N(Nc3ccccc3)C4=O)CC2)cc1", "prefix operator": "=", "pIC50": 4.63}
{"compound": "CN(C)CCN1C(=O)c2cccc3cc([N+](=O)[O-])cc(c23)C1=O [MITONAFIDE]", "prefix operator": "=", "pIC50": 5.86}
{"compound": "O=C(c1ccccc1)N1CCN(c2c([N+](=O)[O-])cc3c4c(cccc24)C(=O)N(CCO)C3=O)CC1", "prefix operator": "=", "pIC50": 4.77}
{"compound": "O=C1c2cccc3c(N4CCN(C(=S)SCc5ccccc5)CC4)c([N+](=O)[O-])cc(c23)C(=O)N1CCc1ccc(O)c(O)c1", "prefix operator": "=", "pIC50": 4.58}
{"compound": "O=C1c2cccc3c(N4CCN(C(=S)SCc5ccccc5)CC4)c([N+](=O)[O-])cc(c23)C(=O)N1Cc1ccco1", "prefix operator": "=", "pIC50": 4.39}
{"compound": "O=C1c2cccc3c(N4CCN(C(=S)SCc5ccccc5)CC4)c([N+](=O)[O-])cc(c23)C(=O)N1Cc1ccccc1", "prefix operator": "=", "pIC50": 4.47}
{"compound": "Cc1ccc(S(=O)(=O)N2CCN(c3c([N+](=O)[O-])cc4c5c(cccc35)C(=O)N(Cc3ccco3)C4=O)CC2)cc1", "prefix operator": "=", "pIC50": 4.53}
{"compound": "O=C1c2cccc3c(N4CCN(C(=S)SCc5ccccc5)CC4)c([N+](=O)[O-])cc(c23)C(=O)N1Nc1ccccc1", "prefix operator": "<", "pIC50": 4.30}
{"compound": "CNCCCN1C(=O)c2cccc3c(N4CCN(C(=O)c5ccccc5)CC4)c([N+](=O)[O-])cc(c23)C1=O", "prefix operator": "=", "pIC50": 5.39}
{"compound": "CC(C)(C)OC(=O)N1CCN(c2c([N+](=O)[O-])cc3c4c(cccc24)C(=O)N(CCc2ccc(O)c(O)c2)C3=O)CC1", "prefix operator": "=", "pIC50": 5.05}
{"compound": "CNCCCN1C(=O)c2cccc3c(N4CCN(C(=O)OC(C)(C)C)CC4)c([N+](=O)[O-])cc(c23)C1=O", "prefix operator": "=", "pIC50": 5.06}
{"compound": "Cc1ccc(S(=O)(=O)N2CCN(c3c([N+](=O)[O-])cc4c5c(cccc35)C(=O)N(Cc3ccc(Cl)cc3)C4=O)CC2)cc1", "prefix operator": "=", "pIC50": 4.52}
{"compound": "Cc1ccc(S(=O)(=O)N2CCN(c3c([N+](=O)[O-])cc4c5c(cccc35)C(=O)N(CCO)C4=O)CC2)cc1", "prefix operator": "=", "pIC50": 4.91}
{"compound": "CC(C)(C)OC(=O)N1CCN(c2c([N+](=O)[O-])cc3c4c(cccc24)C(=O)N(CCO)C3=O)CC1", "prefix operator": "=", "pIC50": 4.87}
{"compound": "CC(C)(C)OC(=O)N1CCN(c2c([N+](=O)[O-])cc3c4c(cccc24)C(=O)N(Cc2ccc(Cl)cc2)C3=O)CC1", "prefix operator": "=", "pIC50": 4.90}
{"compound": "CN(C)CCN1C(=O)c2cccc3c(N4CCN(C(=S)SCc5ccccc5)CC4)c([N+](=O)[O-])cc(c23)C1=O", "prefix operator": "=", "pIC50": 5.62}
{"compound": "O=C1c2cccc3c(N4CCN(C(=S)SCc5ccccc5)CC4)c([N+](=O)[O-])cc(c23)C(=O)N1CCO", "prefix operator": "=", "pIC50": 4.50}
{"compound": "COc1ccc(CN2C(=O)c3cccc4c(N5CCN(S(=O)(=O)c6ccc(C)cc6)CC5)c([N+](=O)[O-])cc(c34)C2=O)cc1", "prefix operator": "=", "pIC50": 4.62}
{"compound": "COc1ccc(CN2C(=O)c3cccc4c(N5CCN(C(=S)SCc6ccccc6)CC5)c([N+](=O)[O-])cc(c34)C2=O)cc1", "prefix operator": "=", "pIC50": 4.57}
{"compound": "CCCCN1C(=O)c2cccc3c(N4CCN(S(=O)(=O)c5ccc(C)cc5)CC4)c([N+](=O)[O-])cc(c23)C1=O", "prefix operator": "=", "pIC50": 4.47}
{"compound": "O=C1c2cccc3c(N4CCN(C(=S)SCc5ccccc5)CC4)c([N+](=O)[O-])cc(c23)C(=O)N1Cc1ccc(Cl)cc1", "prefix operator": "=", "pIC50": 4.53}
{"compound": "O=C(c1ccccc1)N1CCN(c2c([N+](=O)[O-])cc3c4c(cccc24)C(=O)N(CCc2ccc(O)c(O)c2)C3=O)CC1", "prefix operator": "=", "pIC50": 4.70}
